Target: human vasopressin V2 receptor (Homo sapiens)
Sequence (P30518 whole entry): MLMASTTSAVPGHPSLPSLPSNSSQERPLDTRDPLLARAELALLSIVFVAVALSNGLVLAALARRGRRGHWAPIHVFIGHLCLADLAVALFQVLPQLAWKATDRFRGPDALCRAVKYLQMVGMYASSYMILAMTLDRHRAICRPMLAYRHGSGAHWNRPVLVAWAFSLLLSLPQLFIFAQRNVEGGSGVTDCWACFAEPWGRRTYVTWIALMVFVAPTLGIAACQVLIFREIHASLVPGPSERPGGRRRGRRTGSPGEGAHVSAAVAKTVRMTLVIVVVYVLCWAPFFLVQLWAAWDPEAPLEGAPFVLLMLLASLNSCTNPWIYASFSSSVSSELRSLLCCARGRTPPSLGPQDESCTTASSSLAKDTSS
Assay: Receptor binding study, [3H]AVP displacement on CHO cell membranes, human V2
Conditions: [3H]AVP displacement, CHO cell membrane, 25° C., one hour; read-out: Human V2 Ki
pKi: −log10 of the molar value.
// label = yes if pKi is not less than 8, otherwise no

These solved cases illustrate the format of a correct answer.
>>> labelvalue("C[C@H]1CCN(C(=O)c2ccc(-c3ccc4[nH]ccc4c3)c(OCCCN3C(=O)CNC3=O)c2)c2ccccc2N1")
"yes"
>>> labelvalue("C[C@@H]1CCN(C(=O)c2ccc(-c3ccc4[nH]ccc4c3)c(OCCCN)c2)c2ccccc2N1")
"no"
>>> labelvalue("CC(=O)Nc1cc(C(=O)N2CCC(C)Nc3ccccc32)ccc1-c1ccc2[nH]ccc2c1 (stereo not shown)")
"no"

## Input For this compound, is measured pKi 8 or higher? CC(=O)Nc1cc(C(=O)N2CC[C@@H](C)Nc3ccccc32)ccc1-c1ccc2[nH]ccc2c1
## Output no

## Input I'd appreciate it if you could say whether COc1cc(C(=O)N2CCC(C)(C)Nc3ccccc32)ccc1-c1ccc2[nH]ccc2c1 has pKi at least equal to 8.
## Output yes
